Measured Target: Aromatase (Homo sapiens)
Method Description: qHTS assay to identify aromatase inhibitors (AID 743083); note: nearly all actives have a fitted effect of over 55% in size
Study Conditions: MCF-7 aro ERE, testosterone-driven ERE luciferase, 24 h; series mostly up to 70.3 µM
Results filed as inconclusive are left out. Calls of active or inactive are those of the source. Calls come from the whole dose curve; as a rule, active = well fitted inhibition curve with a large enough effect in the repeat runs; inconclusive = weak or mixed curves; inactive = no such curve, though single readings can be large or run the other way.
Labels: yes (1) = active, no (0) = inactive

Molecule | Group
NC(=O)c1ccncc1 | no (0)
Oc1ccc(Cl)c2cccnc12 | yes (1)
CN1CCCN=C1COC(=O)C(O)(c1ccccc1)C1CCCCC1 (stereo not given) | no (0)
C/C=C(/C(=C/C)c1ccc(O)cc1)c1ccc(O)cc1 | no (0)
FC(F)(F)c1ccccc1Cl | no (0)
CC1=Nc2ccc3ccccc3c2C1(C)C | no (0)
O=c1[nH]c2ccc(Cl)cc2o1 | no (0)
O=C1NC(=O)c2cc([N+](=O)[O-])ccc21 | no (0)
C=CCc1ccccc1OCC(O)CNC(C)C (stereo not given) | no (0)
COC(=O)CS | no (0)
O=C(O)c1ccc(OCCCOc2ccc(C(=O)O)cc2)cc1 | no (0)
C=Cc1ccc(S(=O)(=O)O)cc1 | no (0)
C[C@@H](CN(C)C)CN1c2ccccc2Sc2ccccc21 | no (0)
Cc1cc2c(OCC(CNC(C)(C)C)OC(=O)c3ccccc3)cccc2[nH]1 (stereo not given) | no (0)
CN1C[C@H](C(=O)N[C@]2(C)O[C@@]3(O)[C@@H]4CCCN4C(=O)[C@H](Cc4ccccc4)N3C2=O)C[C@@H]2c3cccc4[nH]cc(c34)C[C@H]21 | no (0)
CCC=CC#N | no (0)
CCC(OCCCOC)OC(C)=O (stereo not given) | no (0)
CC(CN(C)C)C(C)(O)Cc1ccc(Cl)cc1 (stereo not given) | no (0)
Cc1ccc(CO)cc1 | no (0)
CC(C)=CCC/C(C)=C/CC/C(C)=C/CCC(=O)OC/C=C(\C)CCC=C(C)C | no (0)
C[C@@H]1CC(=O)NN=C1c1ccc(NN=C(C#N)C#N)cc1 | yes (1)
CCC(=O)C1CC(C(C)C)CC=C1C (stereo not given) | no (0)
CC[N+](CC)(CCNC(=O)C(=O)NCC[N+](CC)(CC)Cc1ccccc1Cl)Cc1ccccc1Cl | no (0)
Oc1cccc(O)c1O | no (0)
O=C1C(=O)c2ccccc2C(O)=C1C1CCC(c2ccc(Cl)cc2)CC1 (stereo not given) | no (0)
CCOC(C)=O | no (0)
CC1=C(Br)C(=O)C(Br)=C/C1=C(/c1ccccc1S(=O)(=O)O)c1cc(Br)c(O)c(Br)c1C | yes (1)
C=CC(=O)[O-].C=CC(=O)[O-].[Zn+2] | no (0)
CC(=O)OCC[N+](C)(C)C | no (0)
O=C(O)c1cccc(-c2noc(-c3ccccc3F)n2)c1 | no (0)

----------
Method Description: Caspase-3/7 induction in HepG2 cells by small molecules, qHTS assay (AID 1346978); note: nearly all actives have a fitted effect of over 15% in size
Study Conditions: HepG2 caspase-3/7 activation, Caspase-Glo luminescence, 17 h; series mostly up to 92.4 µM
Results filed as inconclusive are left out. Activity calls are given as the source filed them. Calls come from the whole dose curve; as a rule, active = well fitted activation curve with a large enough effect in the repeat runs; inconclusive = weak or mixed curves; inactive = flat fitted curve, though single readings scatter.
Possible outcomes: yes (1) (active), no (0) (inactive)

Compound | Group
Cc1cc(O)c(C)c(C)c1O | no (0)
CCCCCCCCCCC(=O)O | no (0)
CCOc1cccc(-n2cc(C(=O)N3CCN(c4cc(C(=O)O)c5ccccc5c4)CC3)nc2-c2ccc(C)cc2)c1 | no (0)
CC(=O)c1ccc([N+](=O)[O-])cc1 | no (0)
C/C=C/C=C/C=O | no (0)
CC1=C(Br)C(=O)C(Br)=C/C1=C(/c1ccccc1S(=O)(=O)O)c1cc(Br)c(O)c(Br)c1C | no (0)
Cc1ccc(C(C)(C)O)cc1 | no (0)
CCOC(=O)[C@H](CCc1ccccc1)N[C@@H](C)C(=O)N(CC(=O)O)C1Cc2ccccc2C1 | no (0)
c1csc(SSc2cccs2)c1 | no (0)
C[C@@H](CN(C)C)CN1c2ccccc2Sc2ccccc21 | no (0)
CC(CN(C)C)C(C)(O)Cc1ccc(Cl)cc1 (stereo unspecified) | no (0)
CC1CC(C)C(=O)C1=O (stereo unspecified) | no (0)
C1COC1 | no (0)
O=C1CCCCCCCCCCOCCCCO1 | no (0)
C=Cc1ccc(S(=O)(=O)O)cc1 | no (0)
CC(C)Nc1cccnc1N1CCN(C(=O)c2cc3cc(NS(C)(=O)=O)ccc3[nH]2)CC1 | no (0)
CCCCCCCC/C=C\CCCCCCCCCCCC(=O)O | no (0)
O=C1Cc2ccccc2N1c1c(Cl)cccc1Cl | no (0)
COC(=O)c1nc(Cl)c(Cl)nc1N | no (0)
O=C(O)c1ccc(OCCCOc2ccc(C(=O)O)cc2)cc1 | no (0)
O=C1c2ccccc2C(=O)c2c(O)c(O)cc(O)c21 | no (0)
C[C@H]1c2cccc(O)c2C(O)=C2C(=O)[C@]3(O)C(O)=C(C(N)=O)C(=O)[C@@H](N(C)C)[C@@H]3[C@@H](O)[C@@H]21 | no (0)
CCCCN1CCCC1C(=O)Nc1c(C)cc(C)cc1C (stereo unspecified) | no (0)
CCOC(=O)OC(C)OC(=O)[C@@H]1N2C(=O)[C@@H](NC(=O)[C@H](N)c3ccccc3)[C@H]2SC1(C)C (stereo partly specified) | no (0)
CNC(=O)c1cnn(-c2nc(N)c3ncn([C@@H]4O[C@H](CO)[C@@H](O)[C@H]4O)c3n2)c1 | no (0)
CC(C)(c1ccccc1)c1ccccc1 | no (0)
O=C(/C=C/c1ccc(O)c(O)c1)O[C@@H]1C[C@@](OC(=O)/C=C/c2ccc(O)c(O)c2)(C(=O)O)C[C@@H](O)[C@@H]1O | no (0)
Brc1cc2ccccc2c2ccccc12 | no (0)
Cc1cc(C)cc(N)c1 | no (0)
NNC(=O)CP(=O)(c1ccccc1)c1ccccc1 | no (0)
CCC(OCCCOC)OC(C)=O (stereo unspecified) | no (0)
COc1ccccc1Oc1c(NS(=O)(=O)c2ccc(C(C)(C)C)cc2)nc(-c2ncccn2)nc1OCCO | no (0)
CCCCC(CC)CN (stereo unspecified) | no (0)
CN1C(=O)N(c2ccccc2Br)Cc2cnc(Nc3ccc4c(c3)OCC(CO)O4)nc21 (stereo unspecified) | yes (1)
COc1cc(Nc2c(C#N)cnc3cc(OCCCN4CCN(C)CC4)c(OC)cc23)c(Cl)cc1Cl | yes (1)
CCOC(=O)c1ccccc1C(=C1C=C(Br)C(=O)C(Br)=C1)c1cc(Br)c(O)c(Br)c1 | no (0)
CC(C)c1nc(CN(C)C(=O)N[C@H](C(=O)N[C@@H](Cc2ccccc2)C[C@H](O)[C@H](Cc2ccccc2)NC(=O)OCc2cncs2)C(C)C)cs1 | no (0)
C=C(C)[C@@H]1CCC2=CCC[C@@H](C)[C@]2(C)C1 | no (0)
Cc1ccccc1S | no (0)
C=CCc1ccccc1OCC(O)CNC(C)C (stereo unspecified) | no (0)
CCCCCCCC/C=C\CCCCCCCCO | no (0)
CC(CCC(=O)O)C(=O)O (stereo unspecified) | no (0)
CC(=O)OCC[N+](C)(C)C | no (0)
C=C1c2cccc(O)c2C(O)=C2C(=O)[C@]3(O)C(O)=C(C(N)=O)C(=O)[C@@H](N(C)C)[C@@H]3[C@@H](O)[C@H]12 | no (0)
CC(=O)OCC(=O)NCCCOc1cccc(CN2CCCCC2)c1 | no (0)
O=C(O)CCc1nc(-c2ccccc2)c(-c2ccccc2)o1 | no (0)
